System: primary human T cells
RUN DESCRIPTION: Small molecule screen: cell yield (flow cytometry events in the live gate)
CONDITION SET: 10 μM, 24 hours at 37° C., then three more days; number of flow cytometry events in the live gate
Structures can show the parent of a compound that is named as a salt.
hey, just use Satisfied if measured Cell Yield is less than 4000, otherwise Not satisfied

• CCOc1ccc2nc3cc(N)ccc3c(N)c2c1 [Ethacridine Lactate] = Not satisfied
• Nc1c2ccccc2nc2ccccc12 = Not satisfied
• OC[C@H]1O[C@@H](n2cnc3c(NCc4ccco4)ncnc32)[C@H](O)[C@@H]1O [Kinetin Riboside] = Satisfied
• CCN(CC)CCNc1ccc(CO)c2sc3ccccc3c(=O)c12 = Not satisfied
• COc1cccc2c1C(=O)c1c(O)c3c(c(O)c1C2=O)C[C@@](O)(C(C)=O)C[C@@H]3O[C@H]1C[C@H](N)[C@H](O)[C@H](C)O1 = Satisfied
• COc1ccc2c(c1)[nH]c1c(C)nccc12 = Not satisfied
• CC[n+]1c(-c2ccccc2)c2cc(N)ccc2c2ccc(N)cc21 [Homidium Bromide] = Satisfied
• C[n+]1cc2c3c(ccc2c2ccc4cc5c(cc4c21)OCO5)OCO3 [Sanguinarine Sulfate] = Satisfied
• C[C@@H]1C[C@@H]([C@H](O)CC2CC(=O)NC(=O)C2)C(=O)[C@@H](C)C1 [Cyclohexamide] = Not satisfied
• CCN(CC)CCOc1ccc2c(c1)C(=O)c1cc(OCCN(CC)CC)ccc1-2 = Satisfied
